The measurements presented in this section are drawn from ChEMBL document CHEMBL3826935.

Test system: Liver microsome
Assay: Unbound intrinsic clearance in rat liver microsomes after 5 hrs by LC-MS/MS analysis
Type: ADME
measured attribute: CL free
For clarity, give the value followed by its unit.

-- ask Recall and state the measured CL free for C[C@]1(O)C[C@@](c2ccc(OC(F)(F)F)cc2)([C@H](O)c2ccccn2)C1 .
-- reply 8 L/h/kg

-- ask Give the reported CL free for this molecule. C[C@@]1(c2ccc(OC(F)(F)F)cc2)C[C@@](O)(c2ccccn2)CO1 (single isomer, unassigned)
-- reply 20 L/h/kg

-- ask Provide measured CL free value, entry: C[C@]1(O)C[C@@](c2cccc(OC(F)(F)F)c2)([C@H](O)c2ccccn2)C1
-- reply 12 L/h/kg

-- ask Tell me CL free reported for C[C@]1(O)C[C@@](c2ccc(OC(F)(F)F)cc2)([C@@H](O)c2ccccn2)C1
-- reply 6 L/h/kg

-- ask Return value of CL free for input O[C@H](c1ccccn1)[C@@]1(c2ccc(Cl)c(Cl)c2)CCO1 , no commentary.
-- reply 60 L/h/kg

-- ask Fill in CL free for record CC(O)(c1ccccn1)C1(c2ccc(Cl)c(Cl)c2)CCC1 (racemic)
-- reply 380 L/h/kg

-- ask Give recorded CL free. O[C@H](c1ccccn1)[C@]1(c2cc(C(F)(F)F)ccn2)C[C@@H](O)C1
-- reply 3 L/h/kg

-- ask Let me know recorded CL free for O[C@H](c1ccccn1)[C@]1(c2ccc(C(F)(F)F)cc2)C[C@H](O)C1 , thanks.
-- reply 3 L/h/kg

-- ask Give the reported CL free for this molecule. OC(c1ncccn1)C1(c2ccc(OC(F)(F)F)cc2)CCC1 (racemic)
-- reply 29 L/h/kg

-- ask Give the reported value of CL free for this record: C[C@]1(c2ccc(OC(F)(F)F)cc2)C[C@](O)(c2ccccn2)CO1 (single isomer, unassigned)
-- reply 10 L/h/kg

-- ask Give the value of CL free reported for the following: O[C@@]1(c2ccccn2)CC[C@@H](c2ccc(C(F)(F)F)cc2)C1
-- reply 151 L/h/kg

-- ask Please report CL free for the following molecule: OC(c1ccccn1)C1(c2ccc(Cl)c(Cl)c2)COC1 (stereo not given)
-- reply 25 L/h/kg

-- ask Identify measured CL free corresponding to O[C@H](c1ccccn1)[C@]1(c2ccc(C(F)(F)F)cc2)C[C@@H](O)C1
-- reply 3 L/h/kg

-- ask Let me know recorded CL free for O[C@H](c1ccccn1)C1(c2ccc(Cl)c(Cl)c2)CC(F)(F)C1 , thanks.
-- reply 51 L/h/kg

-- ask Give a short answer stating reported CL free for O[C@H](c1ccccn1)[C@]1(c2cccc(C(F)(F)F)c2)C[C@H](O)C1 .
-- reply 11 L/h/kg

-- ask Dear colleague, please send me the reported CL free for OC(c1ccccn1)C1(c2ccc(C(F)(F)F)cc2)CNC1 (stereo not given) when you can.
-- reply 3 L/h/kg

-- ask Quote CL free reported for CN1CC(c2ccc(C(F)(F)F)cc2)(C(O)c2ccccn2)C1 (stereo not given) please.
-- reply 7 L/h/kg

-- ask Give me measured CL free, please, for this molecule: O[C@H](c1ccccn1)[C@]1(c2ccnc(C(F)(F)F)c2)C[C@@H](O)C1
-- reply 12 L/h/kg

-- ask Using the record for O[C@]1(c2ccccn2)CC[C@H](c2ccc(C(F)(F)F)cc2)C1 , state its measured CL free.
-- reply 86 L/h/kg

-- ask Please report the measured CL free for O[C@H](c1ccccn1)C1(c2ccc(Cl)c(Cl)c2)CCC1
-- reply 151 L/h/kg

-- ask Answer with reported CL free of C[C@]1(O)C[C@](c2cccc(OC(F)(F)F)c2)([C@H](O)c2ccccn2)C1
-- reply 3 L/h/kg

-- ask Quote CL free reported for C[C@]1(O)C[C@@](c2ccnc(C(F)(F)F)c2)([C@H](O)c2ccccn2)C1 please.
-- reply 3 L/h/kg

-- ask Give the value of CL free reported for the following: O[C@H](c1ncccn1)C1(c2ccc(Cl)c(Cl)c2)CCC1
-- reply 50 L/h/kg

-- ask Respond only with CL free recorded for O[C@]1(c2ccccn2)CC[C@@H](c2ccc(C(F)(F)F)cc2)C1
-- reply 460 L/h/kg

-- ask Please report CL free for the following molecule: O[C@H](c1ccccn1)C1(c2cccc(OC(F)(F)F)c2)CCC1
-- reply 103 L/h/kg

-- ask Supply recorded CL free for C[C@]1(O)C[C@](c2ccc(C(F)(F)F)cc2)([C@H](O)c2ccccn2)C1 here.
-- reply 6 L/h/kg

-- ask Please look at this molecule and report its CL free: O[C@H](c1ccccn1)[C@]1(c2cccc(OC(F)(F)F)c2)C[C@H](O)C1
-- reply 7 L/h/kg

-- ask Quote CL free reported for OC(c1ccc(F)cn1)C1(c2ccc(Cl)c(Cl)c2)CCC1 (racemic) please.
-- reply 190 L/h/kg

-- ask Give the reported CL free for this molecule. O[C@H](c1ccccn1)[C@]1(c2ccnc(C(F)(F)F)c2)C[C@H](O)C1
-- reply 3 L/h/kg

-- ask Report measured CL free; entry is O[C@H](c1ccccn1)C1(c2ccc(OC(F)(F)F)cc2)CC(F)(F)C1
-- reply 12 L/h/kg

-- ask Supply CL free value. Item: C[C@]1(O)C[C@](c2ccc(OC(F)(F)F)cc2)([C@H](O)c2ccccn2)C1
-- reply 6 L/h/kg

-- ask Please report the measured CL free for C[C@]1(O)C[C@](c2cc(C(F)(F)F)ccn2)([C@@H](O)c2ccccn2)C1
-- reply 6 L/h/kg

-- ask Quick one: give measured CL free for C[C@]1(c2ccc(OC(F)(F)F)cc2)C[C@@](O)(c2ccccn2)CO1
-- reply 9 L/h/kg

-- ask Please list CL free recorded for the molecule C[C@@]1(c2ccc(OC(F)(F)F)cc2)C[C@](O)(c2ccccn2)CO1
-- reply 23 L/h/kg

-- ask For the molecule C[C@]1(O)C[C@@](c2ccc(C(F)(F)F)cc2)([C@H](O)c2ccccn2)C1 , report CL free.
-- reply 9 L/h/kg

-- ask Check the records and state CL free for C[C@]1(O)C[C@@](c2cccc(C(F)(F)F)c2)([C@H](O)c2ccccn2)C1
-- reply 19 L/h/kg

-- ask Output CL free of O[C@@]1(c2ccccn2)CC[C@H](c2ccc(C(F)(F)F)cc2)C1
-- reply 21 L/h/kg

-- ask Return value of CL free for input C[C@]1(O)C[C@@](c2cc(C(F)(F)F)ccn2)([C@H](O)c2ccccn2)C1 , no commentary.
-- reply 7 L/h/kg

-- ask Fill in reported CL free for this entry: C[C@]1(O)C[C@](c2ccnc(C(F)(F)F)c2)([C@H](O)c2ccccn2)C1
-- reply 5 L/h/kg

-- ask Tell me measured CL free for O[C@H](c1ccccn1)C1(c2ccc(OC(F)(F)F)cc2)CCC1 please.
-- reply 63 L/h/kg
